Setup conditions: rat, plasma, 5 h
Task for the reader: assign each of the following compounds its reported PPB.
One number for each entry, in %.

INSERT INTO assay_data (compound, number) VALUES
  ('O=C(NC[C@H]1CN(c2ccc(N3CCOCC3=O)cc2)C(=O)O1)c1ccc(Cl)s1', 94.56);

The following compounds each have a reported value; give each one's PPB.
1. Cc1ccc(-c2ccc3c(ccc4sc5c(c43)NC[C@@H](C)NC5=O)n2)cn1
2. O=C(NCc1cccnc1OCC(F)(F)F)c1cncc(-c2ccc(Cl)cc2)c1
3. Cc1ccc(S(=O)(=O)Nc2c(C(=O)N[C@@H](C)C(C)(C)C)c(C)nn2-c2ccccc2)cc1
4. CSc1ccc2c(c1)N(CCC1CCCCN1C)c1ccccc1S2 (stereo unspecified)
5. COc1cc(-n2cnc3cc(-c4ccc(Cl)cc4)sc3c2=O)ccc1OC[C@H](O)C1CC1

[reply]
98.86
99.87
95.82
99.3
98.81

====

Experimental details: physchem
Setup conditions: octan-1-ol/water, pH 7.4, LogD7.4
Measured quantity: logD

The following compounds each have a reported value; give each one's logD.
1. COC(=O)c1ccc(CC(=O)N(C)C2CCN(CCC(c3ccccc3)c3ccccc3)CC2)cc1
2. COC(=O)N1CCOc2cc(COc3ccccc3)cnc21
3. Cn1cnc([N+](=O)[O-])c1Sc1ncnc2nc[nH]c12
4. Cn1cncc1-c1c2c(=O)n(C3CC3)c(=O)n(CC3CC3)c2nn1Cc1ccnc2ccc(Cl)cc12
5. N#Cc1ccc(NC(=O)Nc2ccccc2Br)c2nn[nH]c12
6. Cc1nn(C2CCN(C)CC2)cc1-c1cnc(N)c(-c2nc3ccccc3o2)c1

[reply]
1. 4
2. 2.5
3. 0.19
4. 3.53
5. 1.64
6. 3.4

The following compounds each have a reported value; give each one's logD.
1. O=C(Nc1nnn[nH]1)c1cc(Oc2ccccc2)c2ccccn2c1=O
2. CSc1nc(C(N)=O)c(N)s1

[reply]
0.67
1.21

====

Experimental details: in vitro
Setup conditions: hepatocytes
Label key: TRUE means hepatocyte CLint under 40 µL/min/1e6 cells; FALSE means hepatocyte CLint of 40 µL/min/1e6 cells or more.

// known answers, use as guide
INSERT INTO results (compound, answer_label) VALUES
  ('CC1(CCCc2cc(=O)oc3[nH]c(=O)[nH]c(=O)c23)CC1 [SCH-900271]', 'FALSE'),
  ('O=c1[nH]c2c(O)ccc([C@@H](O)CNCCc3cccc(CNCCCc4ccccc4)c3)c2s1', 'TRUE'),
  ('O=C(O)CCc1ccc(OCc2cccc(Br)c2)cc1', 'FALSE'),
  ('O=C(C1CCN(c2nnc(-n3cccc3)s2)CC1)N1CCc2ccccc2C1', 'FALSE'),
  ('Cc1cc(C)cc(-c2nnc(SCC(=O)N3CCN(C(=O)c4ccco4)CC3)o2)c1', 'FALSE');

[ask] # TODO verify hepatocyte CLint < 40 µL/min/1e6 cells strictly for this compound: O=C1NC(=O)C(c2cnc3ccccn23)=C1c1cn2c3c(cccc13)CN(C(=O)N1CCOCC1)CC2
[reply] TRUE

[ask] # TODO verify hepatocyte CLint < 40 µL/min/1e6 cells strictly for this compound: COc1ccccc1CCNCc1ccc(CCNC[C@H](O)c2ccc(O)c3[nH]c(=O)sc23)cc1
[reply] TRUE

[ask] # TODO verify hepatocyte CLint < 40 µL/min/1e6 cells strictly for this compound: Cc1cc(CCCOc2c(C)cc(-c3noc(C(F)(F)F)n3)cc2C)on1 [PLECONARIL]
[reply] TRUE

[ask] # TODO verify hepatocyte CLint < 40 µL/min/1e6 cells strictly for this compound: O=c1[nH]c2c(O)ccc([C@@H](O)CNCCc3cccc(CNCCc4ccccc4F)c3)c2s1
[reply] TRUE

====

Experimental details: physchem
Each entry belongs to exactly one class, chosen by where its pKa falls: 1: < 8; 2: ≥ 8 and < 9; 3: ≥ 9

INSERT INTO measurements (compound, answer_label) VALUES
  ('O=C(O)COc1ccc(Cl)cc1CN1CCCN(S(=O)(=O)Cc2ccccc2)CC1', 2);

[ask] Form: Item = CCC(CCNC)Oc1cc(Cl)ccc1C#N (configuration not stated) ; Class = ?
[reply] 3

[ask] Form: Item = CC(=O)Nc1ccc(CNc2[nH]nc3ccnc(Oc4ccccc4)c23)cc1 ; Class = ?
[reply] 1

[ask] Form: Item = O=C(O)c1cccc(N2CCC(CN3CCC(Oc4ccc(Cl)c(Cl)c4)CC3)CC2)c1 ; Class = ?
[reply] 2

====

Experimental details: physchem
Setup conditions: octan-1-ol/water, pH 7.4, LogD7.4
Classify as follows. Reported logD greater than or equal to 3: Satisfied. Reported logD below: Not satisfied.

// known answers, use as guide
INSERT INTO measurements (molecule, answer_label) VALUES
  ('O=C(Nc1ccc(N2CCOCC2)cc1)c1nnc(Nc2ccccc2)o1', 'Satisfied'),
  ('O=C(NCC1(O)CCCCCC1)c1cc(-n2ncc(=O)[nH]c2=O)ccc1Cl', 'Not satisfied'),
  ('CC[C@H]1OC(=O)[C@H](C)[C@@H](O[C@H]2C[C@@](C)(OC)[C@@H](O)[C@H](C)O2)[C@H](C)[C@@H](O[C@@H]2O[C@H](C)C[C@H](N(C)C)[C@H]2O)[C@](C)(O)C[C@@H](C)/C(=N\OCOCCOC)[C@H](C)[C@@H](O)[C@]1(C)O [ROXITHROMYCIN]', 'Not satisfied');

[ask] Threshold query (logD >= 3) on N=C(N)Nc1ccc(C(=O)Oc2ccc(Cl)cc2)cc1
[reply] Not satisfied

[ask] Threshold query (logD >= 3) on Cc1ncc(-c2nc(Nc3ccc(C(=O)N4CCCN(C)CC4)cc3)ncc2F)n1C(C)C
[reply] Not satisfied

[ask] Threshold query (logD >= 3) on O=c1c2cnn(-c3ccccc3)c2nc(-c2ccco2)n1-c1ccccc1
[reply] Satisfied

====

Task for the reader: assign each of the following compounds its reported fraction unbound at 5 h.
Experimental details: in vitro
Setup conditions: mouse, plasma
Numbers only.

INSERT INTO results (compound, measured_quantity, number) VALUES
  ('N#Cc1c(-c2ccc(-c3ccccc3OC(F)(F)F)cc2)nc2ccncc2c1O', 'fraction unbound at 5 h', 0.0013);

The following compounds each have a reported value; give each one's fraction unbound at 5 h.
1. C[C@H](c1nc2ncccc2c(=O)n1-c1ccc(Cl)cc1)N(CC1CCS(=O)(=O)CC1)C(=O)Cc1ccc(C(F)(F)F)c(F)c1
2. N#Cc1ccc(C[C@@H](C(=O)O)N2CCC(CN3CCC(Oc4ccc(Cl)c(Cl)c4)CC3)CC2)cc1
3. O=C1COc2nccc(-c3ccccc3F)c2CN1Cc1cc(C(F)(F)F)cc(C(F)(F)F)c1
4. CC(O)(C(=O)Nc1cccc(S(=O)(=O)c2ccccc2)c1)C(F)(F)F (stereo not drawn)
5. C/C=C/c1ccc(Oc2nnnn2-c2ccc(C(N)=O)cc2)c(OC)c1

[reply]
1: 0.0477; 2: 0.197; 3: 0.0095; 4: 0.0661; 5: 0.0428

====

Experimental details: in vitro
Setup conditions: hepatocytes
Classify as follows. Reported hepatocyte CLint greater than or equal to 20 µL/min/1e6 cells: fulfilled. Reported hepatocyte CLint below: not fulfilled.

// known answers, use as guide
INSERT INTO results (molecule, answer_label) VALUES
  ('O=CN(O)CCCP(=O)(O)O', 'not fulfilled'),
  ('COc1ccc2ncc(F)c(CCN3CCC(NCc4ccc5c(n4)NC(=O)CO5)CC3)c2n1', 'fulfilled');

[ask] Threshold query (hepatocyte CLint >= 20 µL/min/1e6 cells) on Cc1ccc(S(=O)(=O)Nc2c(C(=O)NC3CCCCC3C)cnn2-c2ccccc2)cc1 (centres undefined)
[reply] not fulfilled

[ask] Threshold query (hepatocyte CLint >= 20 µL/min/1e6 cells) on COc1ccccc1C(=O)Nc1ccc(Cc2ccncc2)cc1
[reply] fulfilled

[ask] Threshold query (hepatocyte CLint >= 20 µL/min/1e6 cells) on Cc1cc(F)ccc1OC1CCN(CC2CCN([C@@H](Cc3ccc(F)cc3)C(=O)O)CC2)CC1
[reply] not fulfilled

[ask] Threshold query (hepatocyte CLint >= 20 µL/min/1e6 cells) on CCC(C)NC(=O)c1c(C)nn(-c2ccccc2)c1NS(=O)(=O)c1ccc(C)cc1 (centres undefined)
[reply] not fulfilled

[ask] Threshold query (hepatocyte CLint >= 20 µL/min/1e6 cells) on N[C@@H](C(=O)N[C@@H]1C(=O)N2C(C(=O)O)=C(Cl)CC[C@H]12)c1ccccc1 [LORACARBEF ANHYDROUS]
[reply] not fulfilled

====

Experimental details: in vitro
Setup conditions: human, plasma, PPB
Label key: Y means fraction unbound at 5 h under 0.03; N means fraction unbound at 5 h of 0.03 or more.

INSERT INTO results (smiles_code, answer_label) VALUES
  ('Cc1nccn1-c1ccc(COc2cc(F)cc(C3(C(N)=O)CCOCC3)c2)cc1', 'N'),
  ('N#Cc1ccc2ccc(=O)n(CCN3CC[C@@H](NCc4ccc5c(n4)NC(=O)CO5)[C@@H](F)C3)c2c1', 'N'),
  ('COc1ccc2c(c1)c(CC(=O)O)c(C)n2-c1ccnc2cc(Cl)ccc12', 'Y'),
  ('CS(=O)(=O)Cc1ccc2ccn(-c3cc(NC4CC4)n4ncc(C#N)c4n3)c2c1', 'Y');

[ask] # TODO verify fraction unbound at 5 h < 0.03 strictly for this compound: Cc1cc(C)cc(-c2nnc(SCC(=O)N3CCN(C(=O)c4ccco4)CC3)o2)c1
[reply] N
